System: CCRF-CEM
Test: NCI tumour cell line growth inhibition, 48 h
Calls of active or inactive are those of the source. Cut-off read from the data, not from the text of the source: active = GI50 up to about 1.1 µM and inactive = higher.
OBSERVED_PROPERTY: GI50

Please review the entries below; each comes with its answer.
Cc1ccc(C2SCc3nc4ccccc4n32)cc1 (stereo unspecified)    2.79 µM (inactive)
COC(=O)[C@@H]1C[C@@H](O)CN1C(=O)c1ccc([N+](=O)[O-])cc1[N+](=O)[O-]    > 100 µM (inactive)
O=C(CCSC(CC(=O)c1ccc(Cl)cc1)c1ccc(Cl)cc1)Nc1ccc(Cl)cc1 (stereo unspecified)    2.09 µM (inactive)
NC1=NN(c2ccccc2)C(=O)C1C(=O)CCC(=O)Nc1cccc(Cl)c1 (stereo unspecified)    > 100 µM (inactive)
Cc1ccc(NC(=O)CC/C(CC(=O)C(C)(C)C)=N\Nc2ccc([N+](=O)[O-])cc2[N+](=O)[O-])cc1C    25.2 µM (inactive)

Could you now consider this next molecule?
[Q] // returns reported GI50 for input Cc1ccc2c(c1)C(C1Cc3cccc(C)c3C1=O)OC2=O (stereo unspecified)
[A] > 100 µM (inactive)
